Target: human PPARδ (137–441aa) ligand binding domain (Homo sapiens, UniProt Q03181)
Construct: δ (137–441aa); expressed in transfected cells; host or cells: COS-7
Sequence (Q03181 137-441): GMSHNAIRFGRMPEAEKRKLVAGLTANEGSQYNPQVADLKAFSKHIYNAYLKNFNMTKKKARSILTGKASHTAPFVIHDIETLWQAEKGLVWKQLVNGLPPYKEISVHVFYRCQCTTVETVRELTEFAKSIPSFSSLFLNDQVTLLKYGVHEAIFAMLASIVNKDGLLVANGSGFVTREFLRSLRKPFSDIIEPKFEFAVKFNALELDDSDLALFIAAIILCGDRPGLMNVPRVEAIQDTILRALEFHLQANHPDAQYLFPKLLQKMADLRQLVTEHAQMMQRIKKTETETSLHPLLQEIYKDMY
Test: PPAR transfection (Gal4-LBD luciferase reporter) assay, hPPARδ
Format: cell-based
Settings: transfected COS-7 cells, 16 hours, luciferase activity; read-out: hPPAR; EC50 δ (agonist activity)
Listed compounds paired with reported pEC50
// returns pEC50 (minus log10 of molar concentration), number only

Some compounds with known pEC50 results, for comparison:
COMPOUND	pEC50
CCC(Oc1cccc(CN(CCOc2ccc(Cl)cc2)c2nc3ccccc3o2)c1)C(=O)O (stereo not shown)	5.60
COc1ccc(OCCCN(Cc2cccc(O[C@H](C)C(=O)O)c2)c2nc3ccccc3o2)cc1	5.60
CC(Oc1cccc(CCN(CCOc2ccc(F)cc2)c2nc3cc(F)ccc3o2)c1)C(=O)O (stereo not shown)	5.80

Ask | Query (compound): CC(Oc1cccc(CN(CCCOc2ccccc2)c2nc3ccccc3o2)c1)C(=O)O (stereo not shown) ; field requested: pEC50
Reply | 5.62

Ask | Query (compound): CC[C@@H](Oc1cccc(CN(CCCOc2ccc(OC)cc2)c2nc3ccccc3o2)c1)C(=O)O ; field requested: pEC50
Reply | 5.80

Ask | Query (compound): COc1ccc(OCCCN(Cc2cccc(OC(C)C(=O)O)c2)c2nc3ccccc3s2)cc1 (stereo not shown) ; field requested: pEC50
Reply | 5.92

Ask | Query (compound): CC[C@@H](Oc1cccc(CN(CCCOc2ccccc2)c2nc3ccccc3o2)c1)C(=O)O ; field requested: pEC50
Reply | 5.80
